test system: HL-60(TB) leukemia; test: NCI tumour cell line growth inhibition, 48 h
OBSERVABLE: TGI (µM)
Kindly provide the numeric value in µM only, without the unit symbol.

Data request: Identify measured TGI corresponding to CNC(=O)OCc1c(COC(=O)NC)c(C)n(-c2ccc(Br)cc2)c1C
Data returned: 31.9

Data request: Identify measured TGI corresponding to Brc1cccc(C2SCc3nc4ccccc4n32)c1 (stereo not given)
Data returned: 34.9

Data request: Identify measured TGI corresponding to Cc1cc(=O)[nH]c(NN2C(Cl)C(=O)C2c2ccc(Cl)cc2)n1 (stereo not given)
Data returned: 12.7

Data request: Identify measured TGI corresponding to CCCCCCCCCCCC(=O)OCCOCCOCCOCCOCCOCc1ccc(OC)cc1
Data returned: 51.7

Data request: Identify measured TGI corresponding to CCC1CN2CCc3cc(OC)c(OC)cc3C2CC1CC1c2cc(OC)c(OC)cc2CCN1C(=O)C1CCCN1C(=O)OCc1ccccc1 (stereo not given)
Data returned: 28.9

Data request: Identify measured TGI corresponding to CCOc1ccc2nc(NC(=O)c3c/c(=N\NC(=O)C[N+](C)(C)C)c4ccc(O)cc4o3)sc2c1
Data returned: 3.83

Data request: Identify measured TGI corresponding to N#C/C(=C\c1c(-c2ccccc2)[nH]c2ccccc12)S(=O)(=O)c1ccccc1
Data returned: 5.34

Data request: Identify measured TGI corresponding to O=C1c2c(c3c4ccccc4[nH]c3c3ccc4ccccc4c23)C(=O)N1CCN1CCCCC1
Data returned: 3.31

Data request: Identify measured TGI corresponding to C/C=C/[P+](c1ccccc1)(c1ccccc1)c1ccccc1
Data returned: 2.78

Data request: Identify measured TGI corresponding to O=c1oc2ccccc2c(Nc2ccc3c(c2)S(=O)(=O)c2ccccc2O3)c1[N+](=O)[O-]
Data returned: 59.2

Data request: Identify measured TGI corresponding to CNC(=O)N1CN(c2ccccc2)C2(CCN(CCCC(=O)c3ccc(F)cc3)CC2)C1=O
Data returned: 37.8

Data request: Identify measured TGI corresponding to CN(C)c1nc(=Nc2ccc3ccccc3c2)ss1
Data returned: 54.7

Data request: Identify measured TGI corresponding to Cc1cc2c3ccc(C)[n+](C)c3ccc2n1C
Data returned: 18.7

Data request: Identify measured TGI corresponding to O=C(N=S(NC(=O)c1ccccc1)C(Cl)(Cl)Cl)c1ccccc1 (stereo not given)
Data returned: 13.7

Data request: Identify measured TGI corresponding to Nc1ncnc2[nH]ncc12
Data returned: 2.56

Data request: Identify measured TGI corresponding to O=C(/C(=C/c1ccccc1)CN1CCCCC1)c1ccccc1
Data returned: 10.2

Data request: Identify measured TGI corresponding to C[C@]12CC[C@H]3[C@@H](CCC4=CC(=O)CC[C@@H]43)[C@@H]1CC[C@@H]2OC(=O)CCc1ccccc1
Data returned: 35.5

Data request: Identify measured TGI corresponding to NC(=O)NN=C(CS)CS
Data returned: 2.52

Data request: Identify measured TGI corresponding to CC1=C(CCC(C)N(C)Cc2ccc(OCCCN3CCCC3)cc2)C(C)(C)CCC1 (stereo not given)
Data returned: 20.4

Data request: Identify measured TGI corresponding to CN(C(=O)Cc1cc(Cl)c(Cl)cc1N=C=S)[C@H]1CCCC[C@@H]1N1CCCC1
Data returned: 23.8

Data request: Identify measured TGI corresponding to O=C(O[C@H]1[C@@H](O)[C@H](n2cnc3c(Cl)ncnc32)O[C@@H]1COC(c1ccccc1)(c1ccccc1)c1ccccc1)c1ccccc1
Data returned: 40.7
